# measurement_notes: RP-HPLC retention on Cosmosil Cholester column, buffer pH 7.4-acetonitrile
# Format: physicochemical
# setup_conditions: slope of Soczewiński-Wachtmeister equation, acetonitrile φ 0.4–0.6
metric: s Cholester

The examples below pair each entry with its known result.
molecule: O=c1c(-c2ccco2)nnc2n1CCN2c1ccc(Cl)c(Cl)c1 [Compound 27]
metric: s Cholester
readout_value: 4.85

molecule: Cc1ccc(N2CCn3c2nnc(Cc2cccc(Cl)c2)c3=O)cc1 [Compound 49]
metric: s Cholester
readout_value: 5.33

molecule: O=c1c(Cc2ccc(Cl)cc2)nnc2n1CCN2c1ccccc1 [Compound 44]
metric: s Cholester
readout_value: 4.70

molecule: O=c1c(Cc2ccccc2)nnc2n1CCN2c1ccccc1 [Compound 41]
metric: s Cholester
readout_value: 3.75

molecule: O=c1c(-c2ccccc2)nnc2n1CCN2c1ccc(Cl)cc1 [Compound 39]
metric: s Cholester
readout_value: 5.30

molecule: CCOc1ccc(N2CCn3c2nnc(CC(=O)OC)c3=O)cc1 [Compound 10]
metric: s Cholester
readout_value: 2.81

molecule: Cc1ccc(N2CCn3c2nnc(Cc2ccccc2Cl)c3=O)cc1 [Compound 48]
metric: s Cholester
readout_value: 4.90

molecule: CCOc1ccc(N2CCn3c2nnc(-c2ccccc2)c3=O)cc1 [Compound 35]
metric: s Cholester
readout_value: 4.61

I: Cc1cccc(N2CCn3c2nnc(-c2ccccc2)c3=O)c1 [Compound 31]
II: COC(=O)Cc1nnc2n(c1=O)CCN2c1ccc(C)cc1 [Compound 8]
Query block: Consider I and II . Which of these has its s Cholester at a higher number? Please reply using the label of the selected record.
Result block: I
